- Target desc: Cyclophilin D (CypD) (Homo sapiens, UniProt P30405, K175I)
- Sequence (P30405 30-207 K175I limits assumed): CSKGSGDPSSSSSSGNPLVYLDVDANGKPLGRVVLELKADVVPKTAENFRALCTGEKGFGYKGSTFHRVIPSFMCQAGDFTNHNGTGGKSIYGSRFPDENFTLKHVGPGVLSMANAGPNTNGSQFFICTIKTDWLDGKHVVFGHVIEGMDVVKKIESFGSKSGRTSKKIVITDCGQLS
- Assay explanation: Cyclophilin PPIase enzymatic assay (chymotrypsin coupled), CypD
- Assay type: biochemical
pIC50: −log10 of the molar value.
Is pIC50 at least 6? Then Y. If not, N.

[
  {
    "Compound": "CSc1ccccc1C1CCCN1C(=O)C(CC(C)C)NC(=O)NCc1ccc(N)cc1 (stereo not drawn) [Compound F712]",
    "Qualitative label": "N"
  },
  {
    "Compound": "CSc1ccccc1C1CCCN1C(=O)CNC(=O)NCc1ccc(N)cc1 (stereo not drawn) [Compound F684]",
    "Qualitative label": "Y"
  },
  {
    "Compound": "COc1ccccc1C1CCCN1C(=O)CNC(=O)NCc1ccc(N)cc1 (stereo not drawn) [Compound F609]",
    "Qualitative label": "N"
  },
  {
    "Compound": "Nc1ccc(CNC(=O)NCC(=O)N2CCCC2c2ccccc2Cl)cc1 (stereo not drawn) [Compound F673]",
    "Qualitative label": "N"
  }
]
